- Tested on: human prostate cancer cell DU145
- assay.explanation: MTT proliferation assay, DU145
- Assay type: cell-based
- condition.notes: Homo sapiens, DU-145, 96 h, 4 days, read-out: IC50 (nM), inhibition of proliferation of DU145
reported.metric: IC50
State the value with its unit after it.

smi: C[C@@H]1COCCN1c1cc(-c2ccnn2C)n2ncc(-c3ccn[nH]3)c2n1
endpoint.value: 1370 nM

smi: CCn1nccc1-c1cc(N2CCOC[C@H]2C)nn2c(-c3ccn[nH]3)cnc12
endpoint.value: 1100 nM

smi: Cc1ccc(-c2cc(N3CCOC[C@H]3C)nn3c(-c4ccn[nH]4)cnc23)cn1
endpoint.value: 914 nM

smi: C[C@@H]1COCCN1c1cc(-c2ccc(S(C)(=O)=O)cc2)c2ncc(-c3ccn[nH]3)n2n1
endpoint.value: 1200 nM

smi: C[C@@H]1COCCN1c1cc(-c2ccccc2F)c2ncc(-c3ccn[nH]3)n2n1
endpoint.value: 1110 nM

Lab book: IC50 of C[C@@H]1COCCN1c1cc(-c2ccnn2C)c2ncc(-c3ccn[nH]3)n2n1 noted as 1220 nM

###

Measured inhibition at 0.05 µM, listed per entry for reference.
- target.entity: ATR/ATRIP enzyme (Homo sapiens, UniProt Q13535)
- Construct: purchased Eurofins 14-953
- Sequence (Q13535 whole entry): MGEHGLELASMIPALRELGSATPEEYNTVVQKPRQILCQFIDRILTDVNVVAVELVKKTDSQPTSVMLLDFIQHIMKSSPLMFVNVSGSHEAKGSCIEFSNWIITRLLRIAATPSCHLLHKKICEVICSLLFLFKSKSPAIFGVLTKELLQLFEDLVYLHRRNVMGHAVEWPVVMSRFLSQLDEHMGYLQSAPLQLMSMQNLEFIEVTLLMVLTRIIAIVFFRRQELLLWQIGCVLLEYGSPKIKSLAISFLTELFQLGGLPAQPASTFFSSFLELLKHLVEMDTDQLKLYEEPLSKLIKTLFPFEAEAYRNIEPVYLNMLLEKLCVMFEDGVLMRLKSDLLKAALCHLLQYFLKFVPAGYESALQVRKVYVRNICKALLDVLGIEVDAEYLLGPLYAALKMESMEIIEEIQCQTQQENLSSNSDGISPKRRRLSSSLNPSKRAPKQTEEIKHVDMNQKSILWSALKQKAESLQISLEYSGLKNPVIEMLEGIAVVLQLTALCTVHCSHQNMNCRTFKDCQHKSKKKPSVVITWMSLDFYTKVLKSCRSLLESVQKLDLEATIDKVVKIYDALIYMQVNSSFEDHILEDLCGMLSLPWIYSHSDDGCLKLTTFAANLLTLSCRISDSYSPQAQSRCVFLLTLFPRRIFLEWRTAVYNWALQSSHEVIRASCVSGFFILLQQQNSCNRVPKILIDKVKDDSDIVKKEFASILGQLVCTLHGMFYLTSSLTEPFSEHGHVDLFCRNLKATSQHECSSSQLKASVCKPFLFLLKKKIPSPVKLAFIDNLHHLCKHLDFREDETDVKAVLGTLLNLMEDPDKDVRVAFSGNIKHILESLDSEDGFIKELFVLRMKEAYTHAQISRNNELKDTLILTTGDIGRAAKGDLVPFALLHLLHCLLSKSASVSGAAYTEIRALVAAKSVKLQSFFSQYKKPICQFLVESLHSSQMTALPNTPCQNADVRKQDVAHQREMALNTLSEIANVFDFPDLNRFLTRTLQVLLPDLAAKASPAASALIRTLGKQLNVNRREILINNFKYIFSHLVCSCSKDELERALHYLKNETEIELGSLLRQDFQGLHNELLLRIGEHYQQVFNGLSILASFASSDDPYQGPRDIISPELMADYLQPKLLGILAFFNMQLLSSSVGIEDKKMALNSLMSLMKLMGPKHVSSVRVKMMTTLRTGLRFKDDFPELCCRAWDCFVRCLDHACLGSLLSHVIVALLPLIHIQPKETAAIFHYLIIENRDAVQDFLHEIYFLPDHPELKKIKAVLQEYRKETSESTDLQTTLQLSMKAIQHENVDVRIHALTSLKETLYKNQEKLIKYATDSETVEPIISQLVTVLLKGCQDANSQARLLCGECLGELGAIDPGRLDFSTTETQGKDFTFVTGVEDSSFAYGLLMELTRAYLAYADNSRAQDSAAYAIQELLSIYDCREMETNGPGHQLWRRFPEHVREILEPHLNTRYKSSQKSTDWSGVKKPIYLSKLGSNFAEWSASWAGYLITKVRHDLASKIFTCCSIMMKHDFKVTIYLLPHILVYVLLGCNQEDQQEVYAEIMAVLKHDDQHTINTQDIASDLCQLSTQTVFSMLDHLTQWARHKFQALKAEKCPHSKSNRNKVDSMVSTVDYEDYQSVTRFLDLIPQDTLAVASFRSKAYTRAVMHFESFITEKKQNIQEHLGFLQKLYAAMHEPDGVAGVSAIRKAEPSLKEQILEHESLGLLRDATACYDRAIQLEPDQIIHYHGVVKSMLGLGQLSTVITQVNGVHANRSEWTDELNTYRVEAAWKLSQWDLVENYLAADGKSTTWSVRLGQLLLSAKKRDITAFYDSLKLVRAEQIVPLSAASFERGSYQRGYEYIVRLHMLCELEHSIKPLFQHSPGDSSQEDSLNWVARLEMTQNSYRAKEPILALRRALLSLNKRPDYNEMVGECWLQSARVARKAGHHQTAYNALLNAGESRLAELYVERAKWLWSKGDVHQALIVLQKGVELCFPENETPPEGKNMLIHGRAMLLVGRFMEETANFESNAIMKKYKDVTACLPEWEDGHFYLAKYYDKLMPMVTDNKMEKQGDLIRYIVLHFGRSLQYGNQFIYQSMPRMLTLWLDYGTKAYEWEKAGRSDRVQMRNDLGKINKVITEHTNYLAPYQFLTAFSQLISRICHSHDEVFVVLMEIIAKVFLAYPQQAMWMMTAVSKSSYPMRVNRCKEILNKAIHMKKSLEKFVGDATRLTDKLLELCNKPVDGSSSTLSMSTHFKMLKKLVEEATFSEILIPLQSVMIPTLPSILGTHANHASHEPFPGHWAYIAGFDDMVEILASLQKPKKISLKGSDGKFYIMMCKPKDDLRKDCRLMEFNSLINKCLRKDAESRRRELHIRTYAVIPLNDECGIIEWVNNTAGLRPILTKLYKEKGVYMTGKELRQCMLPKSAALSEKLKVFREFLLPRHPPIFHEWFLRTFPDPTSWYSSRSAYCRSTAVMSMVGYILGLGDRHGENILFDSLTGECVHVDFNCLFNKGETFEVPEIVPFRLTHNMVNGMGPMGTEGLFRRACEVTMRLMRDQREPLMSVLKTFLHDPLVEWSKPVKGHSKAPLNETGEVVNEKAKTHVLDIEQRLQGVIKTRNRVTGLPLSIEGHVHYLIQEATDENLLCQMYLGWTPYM
- Sequence (Q8WXE1 whole entry partner): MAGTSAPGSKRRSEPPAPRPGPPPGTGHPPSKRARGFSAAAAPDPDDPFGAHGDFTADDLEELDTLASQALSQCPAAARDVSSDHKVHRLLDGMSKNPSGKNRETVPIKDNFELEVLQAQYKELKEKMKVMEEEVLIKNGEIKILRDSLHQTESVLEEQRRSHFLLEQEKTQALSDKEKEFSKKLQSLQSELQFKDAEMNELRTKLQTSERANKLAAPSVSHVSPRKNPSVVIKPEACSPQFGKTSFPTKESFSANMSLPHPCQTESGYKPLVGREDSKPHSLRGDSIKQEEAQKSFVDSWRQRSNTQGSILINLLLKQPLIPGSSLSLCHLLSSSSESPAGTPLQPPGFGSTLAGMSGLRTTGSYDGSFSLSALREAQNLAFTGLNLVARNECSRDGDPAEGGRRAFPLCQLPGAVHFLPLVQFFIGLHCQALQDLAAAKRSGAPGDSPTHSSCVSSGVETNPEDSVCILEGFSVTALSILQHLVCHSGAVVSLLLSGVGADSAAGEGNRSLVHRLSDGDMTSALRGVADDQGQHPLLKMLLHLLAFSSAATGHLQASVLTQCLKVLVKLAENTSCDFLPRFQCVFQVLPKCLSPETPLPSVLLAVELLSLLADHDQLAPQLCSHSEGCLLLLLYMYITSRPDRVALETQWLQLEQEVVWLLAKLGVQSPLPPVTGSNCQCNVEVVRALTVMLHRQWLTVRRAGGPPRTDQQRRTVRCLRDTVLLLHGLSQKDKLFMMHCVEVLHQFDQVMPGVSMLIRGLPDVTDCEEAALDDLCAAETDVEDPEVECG
- assay.explanation: ATR enzyme activity experiment (HTRF)
- Format: biochemical
- condition.notes: read-out: Inh %, inhibitory effects on ATR kinase activity at 50 nM
Report only the number, with the unit % understood.

compound: Cc1ccc(C)n1-c1cc(N2CCOC[C@H]2C)nn2c(-c3ccn[nH]3)ncc12 [Example 36]
endpoint.value: 63

Looking up C[C@H]1COCCN1c1cc(-c2ccnn2C)c2cnc(-c3ccn[nH]3)n2n1 [Example 33] , I found its inhibition at 0.05 µM recorded as 27

Summary for this compound, C[C@@H]1COCCN1c1cc(-c2ccc(S(C)(=O)=O)cc2)c2cnc(-c3ccn[nH]3)n2n1 [Example 35] : inhibition at 0.05 µM is 71

Note to self: inhibition at 0.05 µM recorded for Cc1cc(S(C)(=O)=O)ncc1-c1cc(N2CCOC[C@H]2C)nn2c(-c3ccn[nH]3)ncc12 [Example 44] was 58

Reported inhibition at 0.05 µM ( Cc1n[nH]cc1-c1cc(N2CCOC[C@H]2C)nn2c(-c3ccn[nH]3)ncc12 [Example 38] ) = 90

# compound Cn1nccc1-c1cc(N2CCOCC2)nn2c(-c3ccn[nH]3)ncc12 [Example 11] ; its inhibition at 0.05 µM = 63

###

- Tested on: human lung cancer cell NCI-H460
- assay.explanation: MTT proliferation assay, NCI-H460
- Format: cell-based
- condition.notes: Homo sapiens, NCI-H460, 96 h, 4 days, read-out: IC50 (nM), inhibition of proliferation of NCI-H460
reported.metric: IC50 (nM)
Express your answer in nM, writing the number without its unit.

smi: C[C@@H]1CN(c2cc(N3CCOC[C@H]3C)nn3c(-c4ccn[nH]4)cnc23)C[C@H](C)O1
IC50, nM: 1110

In the following, a different molecule is considered.
Measured IC50 of C[C@@H]1COCCN1c1cc(N2CCOCC2)c2cnc(-c3ccn[nH]3)n2n1 : 77.8

###

IC50 values for the compounds below.
- Tested on: human prostate cancer cell DU145
- assay.explanation: MTT proliferation assay, DU145
- Assay type: cell-based
- condition.notes: Homo sapiens, DU-145, 96 h, 4 days, read-out: IC50 (nM), inhibition of proliferation of DU145
Reply numerically in nM, unit not repeated.

smi: CC(C)n1nccc1-c1cc(N2CCOC[C@H]2C)nn2c(-c3ccn[nH]3)cnc12
IC50 (nM): 1090

IC50 recorded for this compound, C[C@@H]1CN(c2cc(N3CCOC[C@H]3C)nn3c(-c4ccn[nH]4)cnc23)C[C@H](C)O1 , is 2300

Lookup result for C[C@@H]1COCCN1c1cc(N2CCOCC2)c2ncc(-c3ccn[nH]3)n2n1 ; measured IC50: 1630

compound C[C@@H]1COCCN1c1cc(-c2ccnn2C)c2cnc(-c3ccn[nH]3)n2n1 , IC50 observed: 131

###

- System: human lung cancer cell NCI-H460
- assay.explanation: MTT proliferation assay, NCI-H460
- Format: cell-based
- condition.notes: Homo sapiens, NCI-H460, 96 h, 4 days, read-out: IC50 (nM), inhibition of proliferation of NCI-H460
- Description: The cells were seeded into 96-well cell culture plate with a density of 2000/4000 cells per well and incubated overnight in a 5% CO2 incubator at 37° C. […] diluent of each concentration was added to 120 μL of medium (25 times diluted) and mixed by shaking. […]
Please use yes (1) for IC50 under 200 nM and no (0) for everything else, ties included.

Example cases with answers are listed next.
smi: C[C@@H]1COCCN1c1cc(-c2ccn[nH]2)c2cnc(-c3ccn[nH]3)n2n1
answer.label: no (0)
--
smi: C[C@@H]1COCCN1c1cc(-c2ccn(CCF)n2)c2cnc(-c3ccn[nH]3)n2n1
answer.label: yes (1)
--
smi: C[C@H]1COCCN1c1cc(-c2ccnn2C)c2cnc(-c3ccn[nH]3)n2n1
answer.label: no (0)

## Task # TODO verify IC50 < 200 nM strictly for this compound: Cn1nccc1-c1cc(N2CCOCC2)nn2c(-c3ccn[nH]3)nnc12
## Result no (0)

## Task # TODO verify IC50 < 200 nM strictly for this compound: Cc1cc(S(C)(=O)=O)ccc1-c1cc(N2CCOC[C@H]2C)nn2c(-c3ccn[nH]3)ncc12
## Result yes (1)

## Task Is 200 nM strictly greater than the compound's reported IC50? compound: Cc1ccc(-c2cc(N3CCOC[C@H]3C)nn3c(-c4ccn[nH]4)cnc23)cn1
## Result no (0)

###

- System: human lung cancer cell NCI-H460
- assay.explanation: MTT proliferation assay, NCI-H460
- Type: cell-based
- condition.notes: Homo sapiens, NCI-H460, 96 h, 4 days, read-out: IC50 (nM), inhibition of proliferation of NCI-H460
- Experimental: The cells were seeded into 96-well cell culture plate with a density of 2000/4000 cells per well and incubated overnight in a 5% CO2 incubator at 37° C. […] diluent of each concentration was added to 120 μL of medium (25 times diluted) and mixed by shaking. […]
We'd kindly ask you to apply these IC50 classes: bottom end: < 60 nM; midrange: ≥ 60 nM and < 500 nM; top end: ≥ 500 nM

Use the examples below as a reference point.
compound: Cc1cnn(C)c1-c1cc(N2CCOC[C@H]2C)nn2c(-c3ccn[nH]3)ncc12 [Example 41]
target.entity: human lung cancer cell NCI-H460
answer.label: bottom end
//
compound: Cc1nc([S+](C)[O-])ccc1-c1cc(N2CCOC[C@H]2C)nn2c(-c3ccn[nH]3)ncc12 (some centres unmarked) [Example 50]
target.entity: human lung cancer cell NCI-H460
answer.label: midrange
//
compound: C[C@@H]1COCCN1c1cc(-c2ccnc3[nH]ccc23)c2cnc(-c3ccn[nH]3)n2n1 [Example 55]
target.entity: human lung cancer cell NCI-H460
answer.label: midrange
//
compound: C[C@@H]1COCCN1c1cc(-c2ccnn2C)n2ncc(-c3ccn[nH]3)c2n1 [Example 16]
target.entity: human lung cancer cell NCI-H460
answer.label: top end

## Task Record C[C@@H]1COCCN1c1cc(-c2cncn2C)c2ncc(-c3ccn[nH]3)n2n1 [Example 5] — which class?
## Result top end

## Task Input Cc1cc(S(C)(=O)=O)ncc1-c1cc(N2CCOC[C@H]2C)nn2c(-c3ccn[nH]3)ncc12 [Example 44] ; output its category
## Result midrange

## Task # bin lookup: classify C[C@@H]1COCCN1c1cc(-c2ccnn2C)c2nnc(-c3ccn[nH]3)n2n1 [Example 15] by its IC50
## Result top end

## Task Bin this entry: Cc1ncccc1-c1cc(N2CCOC[C@H]2C)nn2c(-c3ccn[nH]3)ncc12 [Example 42]
## Result bottom end

## Task Consider C[C@@H]1COCCN1c1cc(-c2ccc(S(C)(=O)=O)cc2)c2ncc(-c3ccn[nH]3)n2n1 [Example 7] . To which IC50 class does it belong?
## Result top end

## Task Bin this entry: C[C@@H]1COCCN1c1cc(C2CC2)c2cnc(-c3ccn[nH]3)n2n1 [Example 32]
## Result midrange

## Task Categorize the following entry: Cc1n[nH]cc1-c1cc(N2CCOC[C@H]2C)nn2c(-c3ccn[nH]3)ncc12 [Example 38]
## Result midrange

## Task Please report the category associated with C[C@@H]1COCCN1c1cc(N2CCOCC2)c2ncc(-c3ccn[nH]3)n2n1 [Example 9] , nothing else.
## Result top end

## Task Kindly identify the class of Cc1ccccc1-c1cc(N2CCOC[C@H]2C)nn2c(-c3ccn[nH]3)ncc12 [Example 40] .
## Result bottom end

## Task Form field 'band' for C[C@@H]1COCCN1c1cc(-c2cccnc2C(F)(F)F)c2cnc(-c3ccn[nH]3)n2n1 [Example 47]
## Result bottom end

## Task Could you tell me which band C[C@@H]1COCCN1c1cc(-c2ccnn2C)c2cnc(-c3ccn[nH]3)n2n1 [Example 13] belongs to?
## Result bottom end

## Task State the class of the compound shown: C[C@@H]1COCCN1c1cc(-c2ccnn2C)c2cnc(-c3c[nH]cn3)n2n1 [Example 23]
## Result top end
